Measured gcPBM binding intensity (ln), listed per entry for reference.
Test system: PfHDP1 homeodomain (GST-tagged)
Assay: gcPBM binding intensity (ln(normalized median fluorescence intensity)); higher = stronger DNA binding
Over roughly 25,000 sequences, “ln(normalized median fluorescence intensity)” has its median near 6.7; the highest 2% begin near 10. The sample holds the highest values, similar sequences and a random draw of the others, so the mix is not that of the screen.
quantity: gcPBM binding intensity (ln)

> print(dat)
                                     seqtext  endpointvalue
 1  TTTTTTTTGGTATAATGTACATTTTCACTTATGTAT [XGTACX_site3259]           6.97
 2  TCCTTATATTGGCACACACACACAATAAAATGAAAA [CACACA_site4715]           7.07
 3  CCCACATAAAAAAATAAACACACATATGTATATATA [CACACA_site9040]           7.07
 4  AAGACAAATTTTACATGTACAAATATATTACATATA [XGTACX_site7060]           6.83
 5  AATTTAATATAATGCACACATAAAAAAAAAAAAAAA [CACACA_site123]           10.5
 6  TATATCTTACTTTTTGCACACACTAATATTATTGTT [CACACA_site1640]           10.1
 7  TATCCTTATATTTGCACACACACACTAGAAAATGAA [CACACA_site4714]           10.7
 8  AAATAAAATTATAATACATGCATACATACATATATA [TGCATGCA_site69]            6.3
 9  AAAAGAAAAAAAAAAAAAAAAAAAATTAAAATATAA [CACACA_negctrl_site17]           5.65
10  TATATAAATGGACACACACACACCTTATAATTATTA [CACACA_site6093]           6.85
11  TATCTTACTTTTTGCACACACTAATATTATTGTTTA [CACACA_site4990]           11.1
12  AAAATTTAATATAATGCACACATAAAAAAAAAAAAA [CACACA_site7923]           10.4
13  AATTAACAAAGACACACACACACACGCACAAAAAAA [CACACA_site6388]           7.33
14  AACAAACACAGACACACACACACACCCAAATGATTA [CACACA_site2431]           6.98
15  ACTAGACAAAATATAATGCACACTATTATTTTTATT [CACACA_site2726]           10.6
